# TEST_DESCRIPTION: NCI Yeast Anticancer Drug Screen. Data for the rad50 strain (AID 155);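 further: 0% = growth of vehicle-only cultures of the same strain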
# TEST_PARAMETERS: S. cerevisiae rad50 strain growth inhibition; at 50.0 µM; stronger effect = higher value
# Protocol: Growth inhibition of yeast strains with defined genetic alterations is measured as a screen for potential anti-cancer activity. Selected strains with alterations in DNA damage repair or cell cycle control were exposed to compounds and growth inhibition was measured relative to vehicle treated controls. The strain used in this assay is rad50
This is part of a sample that, as a whole, favours compounds with a hit. Of some 79,000 tested, about 15% had one in any assay.
READOUT_KIND: growth inhibition (%)
The response must be a number in % with no trailing unit.

get_value(item= Nc1ccc(S(=O)(=O)/N=C(\NS(=O)(=O)c2ccc(N)cc2)c2ccccc2)cc1 , readout=growth inhibition) returns 15.7

get_value(item= C=C(C)C(=O)OCCOCC(CC)CCCC (stereo unspecified) , readout=growth inhibition) returns 11.2

get_value(item= COc1cc(OC)c(C(=O)c2ccccc2N)c(OC)c1 , readout=growth inhibition) returns -3.2

get_value(item= Cc1ccc2ccccc2c1Br , readout=growth inhibition) returns -4.55

get_value(item= CCC(C)(C)C(O)c1ccc2c(c1)OCO2 (stereo unspecified) , readout=growth inhibition) returns -0.2

get_value(item= COc1ccc2nc3cc(Cl)ccc3c(C=O)c2c1 , readout=growth inhibition) returns -0.15

###

# TEST_DESCRIPTION: NCI Yeast Anticancer Drug Screen. Data for the sgs1 mgt1 strain (AID 161);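 further: 0% = growth of cultures given vehicle only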
# TEST_PARAMETERS: S. cerevisiae sgs1 mgt1 strain, at 50.0 µM
Compounds without any hit were thinned out: in the full panel of roughly 79,000, 15% have a hit. The source made the active and inactive calls. No stated cut-off is given here; in the data, active means growth inhibition above about 70%; inactive means the rest.
Answer with one of the outcomes given here: True for active, False for inactive

Tell me the assay call for Nc1nc(Cl)cc(NCCCNc2cc(Cl)nc(N)n2)n1 please. False

Tell me the assay call for O=S1(=O)Cc2ccccc2O1 please. False

Tell me the assay call for O=C(O)C(=O)C(=O)O please. False

Tell me the assay call for C/C(=N\N(C)C)c1sc(-n2nc(-c3ccccc3)cc2-c2ccccc2)nc1C please. False

Tell me the assay call for CCCCCCCCC(=O)c1c(OC)oc(C=O)cc1=O please. False

Tell me the assay call for COc1cc(C2CC(C)=C(C)CC2C(=O)O)cc(OC)c1OC (stereo not given) please. False

Tell me the assay call for O=C(O)C(CS(=O)(=O)O)S(=O)(=O)O (stereo not given) please. False

Tell me the assay call for OC12c3ccccc3C1CCCCCC21OCCCO1 (stereo not given) please. False

Tell me the assay call for O=C(N/N=C\c1ccc(Cl)cc1Cl)c1ccc(F)cc1 please. False

Tell me the assay call for O=C(NC(=O)c1ccccc1[N+](=O)[O-])Nc1ccc(Oc2ncc(Br)cn2)c(Cl)c1 please. False

Tell me the assay call for CCCCCCCCCCCCCCCCCC(=O)Nc1nc(N)nc(N)n1 please. False

Tell me the assay call for Cc1ccc(C)c(NC(=O)CCC(=O)C(C#N)c2nc3ccccc3s2)c1 (stereo not given) please. False

Tell me the assay call for C#C/C=C/CC1OC(C(Br)CC)CC(Br)C2CC1O2 (stereo not given) please. False

Tell me the assay call for CCCCC(CC)CCC(O)CC(C)C (stereo not given) please. False

Tell me the assay call for CCCc1nc2ccc(C)cc2[nH]1 please. False

Tell me the assay call for Cc1cccc(Cl)c1NC(=O)c1ccc(C(=O)Nc2c(C)cccc2Cl)cc1 please. False

Tell me the assay call for NC(N)=NC(N)=Nc1cnccn1 please. False

Tell me the assay call for CC(C)c1ccc2c(c1)C=C1OC(=O)[C@]3(C)CCC[C@@]2(C)C13 (stereo not given in full) please. False

Tell me the assay call for O=C(O)c1ccc(OS(=O)(=O)c2ccccc2)cc1 please. False

Tell me the assay call for c1cnc(NC(Nc2cnccn2)C2CCCCC2)cn1 please. False

Tell me the assay call for CC(/C=N/N(C)C1=NCCCCN1)=N/N(C)C1=NCCCCN1 please. False

Tell me the assay call for CCSC(OC(C)=O)C(Nc1ccc([N+](=O)[O-])cc1[N+](=O)[O-])C(OC(C)=O)C(OC(C)=O)C(COC(C)=O)OC(C)=O (stereo not given) please. False

Tell me the assay call for CCCCN(CCCC)CC(O)c1cccc2c1cc(Cl)c1ccccc12 (stereo not given) please. True

Tell me the assay call for O=C(Nn1c(=S)[nH][nH]c1=S)c1ccccc1 please. False

Tell me the assay call for CN(C)CCCNC(=S)S please. False

###

# TEST_DESCRIPTION: NCI Yeast Anticancer Drug Screen. Data for the mec2-1 strain (AID 157)
# TEST_PARAMETERS: S. cerevisiae mec2-1 strain, at 50.0 µM, stronger effect = higher value
This is part of a sample that, as a whole, favours compounds with a hit. Of some 79,000 tested, about 15% had one in any assay.
READOUT_KIND: growth inhibition (%)
The response must be a number in % with no trailing unit.

get_value(item= NC(CCOCCP(=O)(O)CCOCCC(N)C(=O)O)C(=O)O (stereo unspecified) , readout=growth inhibition) returns -20.8

get_value(item= O=C(Nc1cccc2c1[nH]c1c(-c3ccccc3)nccc12)c1ccccc1[N+](=O)[O-] , readout=growth inhibition) returns 45.1

get_value(item= CCCCCP(=O)(CCCCC)C1CCCC1 , readout=growth inhibition) returns 11.2

get_value(item= Cc1ccc(Cl)cc1N=C=S , readout=growth inhibition) returns -18.8

get_value(item= N#CC(NC12CC3CC(CC(C3)C1)C2)c1ccc2c(c1)OCO2 (stereo unspecified) , readout=growth inhibition) returns -5.6

get_value(item= O=C(N1CCOCC1)C12OC3CC(CC(C3)O1)O2 , readout=growth inhibition) returns 1.95

get_value(item= COc1ccc2c(c1)CCCN2C(N)=Nc1ccc([N+](=O)[O-])cc1 , readout=growth inhibition) returns -4.4

get_value(item= O=C(O)C1=C(O)CCN=C1 , readout=growth inhibition) returns 2.7

get_value(item= N#CC(CCc1ccccc1[N+](=O)[O-])(CCc1ccccc1[N+](=O)[O-])C(N)=O , readout=growth inhibition) returns 5.55

get_value(item= N#CC1(N(O)C(=O)Nc2ccccc2)CCCCC1 , readout=growth inhibition) returns -10.3

get_value(item= Cc1ccc(NC(=O)COc2ccccc2)c(C)c1 , readout=growth inhibition) returns 19.9

###

# TEST_DESCRIPTION: NCI Yeast Anticancer Drug Screen. Data for the bub3 strain (AID 167)
# TEST_PARAMETERS: S. cerevisiae bub3 mutant strain, at 50.0 µM, stronger effect = higher value
Compounds without any hit were thinned out: in the full panel of roughly 79,000, 15% have a hit.
I'd appreciate it if you could supply growth inhibition values for the items below.
The response must be a number in % with no trailing unit.

get_value(item= O=C1OC(c2ccccc2)=N/C1=C/N1CCCC1C(=O)O (stereo unspecified) , readout=growth inhibition) returns -4.4

get_value(item= N#Cc1c(N)ncn1C1OC(CO)C(O)C1O (stereo unspecified) , readout=growth inhibition) returns 0.15

get_value(item= COc1ccc(/C=C(\C2=NC(=O)CS2)c2nc3ccccc3[nH]2)cc1 , readout=growth inhibition) returns -20.4

get_value(item= OC1CC2c3ccccc3C1c1cccc[n+]12 (stereo unspecified) , readout=growth inhibition) returns 4.65

get_value(item= Cc1nc(Cl)c(C)c(Cl)n1 , readout=growth inhibition) returns -5

get_value(item= CCNC(=O)OCCN(C)CCOC(=O)NCC , readout=growth inhibition) returns -7.7

###

# TEST_DESCRIPTION: NCI Yeast Anticancer Drug Screen. Data for the mlh1 rad18 strain (AID 175)
# TEST_PARAMETERS: S. cerevisiae mlh1 rad18 strain growth inhibition; at 50.0 µM; stronger effect = higher value
About 79,000 compounds went through this panel and 15% of them were active in at least one assay; those are over-represented in the sample as a whole. Activity calls are given as the source filed them. No stated cut-off is given here; in the data, active means growth inhibition above about 70%; inactive means the rest.
READOUT_KIND: growth inhibition

get_value(item= CCC(C)N=Cc1ccccc1O.CCC(C)N=Cc1ccccc1O.[Cu] (stereo not drawn) , readout=growth inhibition) returns 11.2% (inactive)

get_value(item= CC1=C/C(=N/NS(=O)(=O)c2ccc(C)cc2)CC(C)(C)C1 , readout=growth inhibition) returns 13.2% (inactive)

get_value(item= CCN(CC)CCCS/C(N)=N\S(=O)(=O)c1ccc(N)cc1 , readout=growth inhibition) returns -16.6% (inactive)

get_value(item= [Co].[O-]c1cccnc1C=Nc1ccccc1.[OH3+] , readout=growth inhibition) returns 21.9% (inactive)

get_value(item= O=S1(=O)C=CC(N/N=C\c2ccc3ccccc3n2)=C1 , readout=growth inhibition) returns -7.25% (inactive)

get_value(item= CC1COB(c2ccccc2)OCC(C)N1CNC(=O)C1=C(O)C2(O)C(O)=C3C(=O)C4C(O)=CC=CC4C(C)(O)C3CC2C(N(C)C)C1=O (stereo not drawn) , readout=growth inhibition) returns 38.6% (inactive)

get_value(item= Cc1ccc(N2C(=O)c3ccccc3NC2(C)CCl)cc1 (stereo not drawn) , readout=growth inhibition) returns 1.3% (inactive)

get_value(item= COc1cc(Cl)ccc1NC(=O)COc1ccc(Cl)cc1 , readout=growth inhibition) returns -17.1% (inactive)

get_value(item= COC(=O)c1[nH]c(=O)c(C#N)c(C(=O)OC)c1C(=O)c1cccnc1 , readout=growth inhibition) returns 25.6% (inactive)

get_value(item= Cc1cc(Cl)ccc1NC(N)=O , readout=growth inhibition) returns -1.85% (inactive)

get_value(item= COC(=O)CC(C(C(=O)OC)C(=O)OC)N1C(=O)OC(c2ccccc2)C1c1ccccc1 (stereo not drawn) , readout=growth inhibition) returns 3.4% (inactive)

get_value(item= CC1(n2nc(-c3ccccc3)n(-c3ccccc3)c2=O)CSC1 , readout=growth inhibition) returns -7.1% (inactive)

get_value(item= COc1ccc(CCN2C(=O)C(=O)N(c3ccc(Cl)c(Cl)c3)C2=O)cc1OC , readout=growth inhibition) returns 13% (inactive)

get_value(item= CC(C)N(C(=O)C12C3C4C1(I)C1C2C3(I)C41C(=O)N(C(C)C)C(C)C)C(C)C (stereo not drawn) , readout=growth inhibition) returns -12.2% (inactive)

get_value(item= [O-]c1on[n+](-c2ccccc2)c1CN1CCOCC1 , readout=growth inhibition) returns -3.05% (inactive)

get_value(item= CC(=O)Nc1ccc(OCc2ccccc2)cc1[N+](=O)[O-] , readout=growth inhibition) returns 28.2% (inactive)

get_value(item= Nc1ncnc(N)c1NC(=O)CCCCc1ccccc1 , readout=growth inhibition) returns -5.9% (inactive)

get_value(item= c1ccc(SC(Sc2ccccc2)=C2CCC2)cc1 , readout=growth inhibition) returns -6.35% (inactive)

get_value(item= COC(=O)C1OC1C(=O)OC (stereo not drawn) , readout=growth inhibition) returns 1.6% (inactive)

get_value(item= O=C1c2cccnc2-c2nccc3c2c1nc1ccccc13 , readout=growth inhibition) returns 90.7% (active)

get_value(item= N#Cc1c(Cl)cccc1N1CCSCC1 , readout=growth inhibition) returns 0.1% (inactive)

get_value(item= Cc1cc(C)c(/C=C\C(=O)c2ccccc2)c(C)c1 , readout=growth inhibition) returns -15.5% (inactive)

get_value(item= CCOC(=O)/C(C#N)=C/c1ccc(O)c(OC)c1 , readout=growth inhibition) returns 23.3% (inactive)

get_value(item= COc1cccc(-c2nc(SCC(N)=O)[nH]c(=O)c2C#N)c1 , readout=growth inhibition) returns 14.2% (inactive)

get_value(item= CC(C)(O)C(O)(c1ccccc1)c1ccccc1 , readout=growth inhibition) returns 12.8% (inactive)

get_value(item= CCOP(=O)(CCP(=O)(CCP(=O)(OCC)OCC)CCP(=O)(OCC)OCC)OCC , readout=growth inhibition) returns -9.2% (inactive)

get_value(item= Cc1cccc(N2CC3CC4C=CC3(C2)O4)c1 (stereo not drawn) , readout=growth inhibition) returns 13.1% (inactive)

get_value(item= CC1(CO)CCCC2(C)C3=CC(=O)CCC3CCC12 (stereo not drawn) , readout=growth inhibition) returns -3.15% (inactive)

get_value(item= O=C1CC(N2C(=O)C3C4CCC(O4)C3C2=O)C(=O)N1 (stereo not drawn) , readout=growth inhibition) returns 6.45% (inactive)

get_value(item= O=C(NCCCCCCNC(=O)Nc1cccc2ccccc12)Nc1cccc2ccccc12 , readout=growth inhibition) returns -13.6% (inactive)

get_value(item= CCCCOC(=O)c1ccc(O)cc1.[Zn+2] , readout=growth inhibition) returns -35.4% (inactive)

get_value(item= CCCC1OCC(CC)([N+](=O)[O-])CO1 (stereo not drawn) , readout=growth inhibition) returns -5.7% (inactive)

get_value(item= CC(=O)c1cccc(NC(=O)OC2CCCC(C)C2)c1 (stereo not drawn) , readout=growth inhibition) returns 43.1% (inactive)

get_value(item= O=[N+]([O-])c1ccc(Cl)cc1N/N=C/c1cccs1 , readout=growth inhibition) returns -31.8% (inactive)

get_value(item= CCCCCCCCCc1ccc(OC(=O)CCC)cc1 , readout=growth inhibition) returns 20.7% (inactive)

get_value(item= Cc1ccccc1-c1nc(/C=C2\C(=O)C=Cc3ccccc32)c(O)o1 , readout=growth inhibition) returns -1.6% (inactive)

get_value(item= CC1CCS(=O)(=O)C1 (stereo not drawn) , readout=growth inhibition) returns -10.1% (inactive)

get_value(item= O=C(C[n+]1ccccc1)NNC(=O)/C(=C/c1ccc2c(c1)OCO2)NC(=O)c1ccccc1 , readout=growth inhibition) returns 10.1% (inactive)

Where do these numbers come from? They come from PubChem BioAssay (NCI).
